Data origin, for the record: the supplement of paper PMC6555819

Tested on: RARa homodimer (NR concentration 270 nM)
Assay: PBM binding z-score (relative to random genomic background probes); higher = stronger binding; sequences stand for … in GC…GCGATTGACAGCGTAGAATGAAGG
Kindly return y if reported PBM binding z-score is no lower than 0.7; return n if it is lower.

These solved cases illustrate the format of a correct answer.
INSERT INTO results (seq, classification) VALUES
  ('ATATGTAGGTTAAGGGTCATTTAGGTTGGTTCGC', 'y'),
  ('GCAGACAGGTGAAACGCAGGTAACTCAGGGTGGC', 'n'),
  ('TCTCGGAGGACACGAAAGGTTAGAGCTCGACATC', 'n'),
  ('ACTATTAGTTGACTTAGGTCAACCGATACGACGC', 'y');

Shift focus to the following entry.
Enquiry: Would you say `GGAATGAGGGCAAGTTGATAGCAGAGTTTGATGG` shows PBM binding z-score at minimum 0.7?
Return: n

* * *

Tested on: PPARa:RXRa (NR concentration 270 nM, RXRa partner concentration 90 nM)
Experiment: PBM binding z-score (relative to random genomic background probes); higher = stronger binding; sequences stand for … in GC…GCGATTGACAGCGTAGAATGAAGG
Below: a set of entries, each annotated with reported PBM binding z-score.
Output spec: single numeric token, no unit.

INSERT INTO measurements (seq, reported) VALUES
  ('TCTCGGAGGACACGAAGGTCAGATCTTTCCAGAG', 1.98),
  ('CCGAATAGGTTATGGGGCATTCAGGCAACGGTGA', 2.16),
  ('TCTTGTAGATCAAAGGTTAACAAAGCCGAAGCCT', 4.9),
  ('AGAACGAGGGCACGCTGAGTTGATAGGAGAGTAG', 2.07),
  ('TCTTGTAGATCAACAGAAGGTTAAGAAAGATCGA', 1.27);

Enquiry: Looking for the measured PBM binding z-score of `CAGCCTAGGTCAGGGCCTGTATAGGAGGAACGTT` , can you help?
Return: 1.95

Enquiry: // repeat for `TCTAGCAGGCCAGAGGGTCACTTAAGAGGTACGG` and report
Return: 2.4

Enquiry: // repeat for `TAGAGTAGGTTAGGGGCATTCAGAATGGCGTCGA` and report
Return: 2.24

Enquiry: // repeat for `TGAATGAGGTTAAAGATCAGGGAGCGTGGCGTCG` and report
Return: 4.39

Enquiry: // repeat for `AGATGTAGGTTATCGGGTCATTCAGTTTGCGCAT` and report
Return: 4.89

* * *

Test system: LXRa homodimer (NR concentration 270 nM)
Assay: PBM binding z-score (relative to random genomic background probes); higher = stronger binding; sequences stand for … in GC…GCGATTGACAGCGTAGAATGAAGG
Endpoint: PBM binding z-score
Output spec: single numeric token, no unit.

Look over these answered cases.
INSERT INTO measurements (seq, tested_on, endpoint, reported) VALUES
  ('CAAACTAGGTCAAGAGGTCAACGTCCGCTTCCCG', 'LXRa homodimer (NR concentration 270 nM)', 'PBM binding z-score', 5.46),
  ('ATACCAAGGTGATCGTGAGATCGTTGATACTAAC', 'LXRa homodimer (NR concentration 270 nM)', 'PBM binding z-score', 0.16),
  ('TTACCAAGGTGAGGGTCGTTGATCCCTCTGTAGA', 'LXRa homodimer (NR concentration 270 nM)', 'PBM binding z-score', -0.621);

Enquiry: Looking for the measured PBM binding z-score of `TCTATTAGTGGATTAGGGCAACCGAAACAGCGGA` , can you help?
Return: 0.262

Enquiry: // repeat for `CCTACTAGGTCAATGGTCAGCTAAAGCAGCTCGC` and report
Return: 0.529

Enquiry: // repeat for `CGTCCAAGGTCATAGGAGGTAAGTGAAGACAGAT` and report
Return: 0.86

Enquiry: // repeat for `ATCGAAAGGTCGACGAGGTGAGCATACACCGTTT` and report
Return: 0.0611

Enquiry: // repeat for `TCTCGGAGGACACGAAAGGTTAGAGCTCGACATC` and report
Return: -0.0791

Enquiry: // repeat for `CCTTACGGGTCACTCCAGGTTATAGCATCGGAGT` and report
Return: 1.97

Enquiry: // repeat for `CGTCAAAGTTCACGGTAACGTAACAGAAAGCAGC` and report
Return: 2.53
